Data provenance: ChEMBL document CHEMBL4699527

Tested on: HT-22
Assay: Neuroprotective activity against glutamate-induced cell death in mouse HT-22 cells assessed as increase in cell viability after 24 hrs by EZ-Cytox assay
Type: functional, cell-based
Conditions: HT-22, 24 h
Class (by EC50) -- 1 (below 8 µM), 2 (8 µM to below 60 µM), 3 (60 µM or more)

O=C(/C=C/c1ccc(O)c(O)c1)O[C@H]1CC[C@@H](O)[C@H]1O	3
COc1c(O)c(OC)c2c(=O)cc(-c3ccccc3)oc2c1OC	2
COc1ccc(/C=C/C(=O)c2ccc(O[C@@H]3O[C@H](CO)[C@@H](O)[C@H](O)[C@H]3O)c(O)c2O)cc1O	1

Task: Sort into band: O=C(/C=C/c1ccc(O)c(O)c1)O[C@@H]1C[C@](O)(C(=O)O)C[C@@H](OC(=O)/C=C/c2ccc(O)c(O)c2)[C@H]1O
Output: 3

Task: Which bin, given its EC50, does OC[C@H]1O[C@@H](OCc2ccccc2)[C@H](O)[C@@H](O)[C@@H]1O occupy?
Output: 3

Task: Could you place CC(C)=CCC/C(C)=C\CO[C@@H]1O[C@H](CO)[C@@H](O)[C@H](O)[C@H]1O in its proper category? Many thanks.
Output: 3

Task: Record O=C(O)c1ccc(O)c(O)c1 — which class?
Output: 3

Task: Into which category would you place COc1ccc(-c2cc(=O)c3c(O)cc(O[C@@H]4O[C@H](CO[C@@H]5O[C@@H](C)[C@H](O)[C@@H](O)[C@H]5O)[C@@H](O)[C@H](O)[C@H]4O)cc3o2)cc1 ?
Output: 3

Task: Class (by measured EC50) for O=c1cc(-c2ccc(O)cc2)oc2cc(O[C@@H]3O[C@H](CO)[C@@H](O)[C@H](O)[C@H]3O)cc(O)c12
Output: 3

Task: Lab note: which band did COc1ccc(-c2cc(=O)c3c(O)cc(O[C@@H]4O[C@H](CO[C@@H]5O[C@@H](C)[C@H](OC(C)=O)[C@@H](O)[C@H]5O)[C@@H](O)[C@H](O)[C@H]4O[C@@H]4O[C@H](COC(C)=O)[C@@H](O)[C@H](OC(C)=O)[C@H]4O)cc3o2)cc1 land in?
Output: 3

Task: Form field 'band' for COc1ccc(/C=C/C(=O)c2ccc(O)cc2O)cc1O
Output: 2

Task: Returns: class label. Input: COc1cc(/C=C/C(=O)NC[C@H](O)c2ccc(O)cc2)ccc1O
Output: 2

Task: Please report the category associated with COc1cc2oc(-c3ccccc3)cc(=O)c2c(O)c1OC , nothing else.
Output: 2

Task: Kindly identify the class of O=C(O)/C=C/c1ccc(O)c(O)c1 .
Output: 3

Task: # bin label for O=C1/C(=C/c2ccc(O)c(O)c2)Oc2cc(O)ccc21
Output: 1

Task: Exercise: read the entry O=C(O)c1ccc(O)cc1 and state which class it falls under.
Output: 3

Task: GET /class?item= COc1ccc(-c2cc(=O)c3c(O)cc(O[C@@H]4O[C@H](CO[C@@H]5O[C@@H](C)[C@H](O)[C@@H](OC(C)=O)[C@H]5O)[C@@H](O)[C@H](O)[C@H]4O[C@@H]4O[C@H](COC(C)=O)[C@@H](O)[C@H](O)[C@H]4O)cc3o2)cc1
Output: 3

Task: Dear colleague, I would appreciate it if you could identify the bin for O=C1/C=C/c2ccc(O)c(c2)O[C@@H]2O[C@H](COC(=O)/C=C/c3cc(O)c(O)cc3C1)[C@@H](O)[C@H](O)[C@H]2O and reply at your convenience.
Output: 2

Task: Input COc1ccc(-c2cc(=O)c3c(O)cc(O[C@@H]4O[C@H](CO[C@@H]5O[C@@H](C)[C@H](OC(C)=O)[C@@H](O)[C@H]5O)[C@@H](O)[C@H](O)[C@H]4O[C@@H]4O[C@H](COC(C)=O)[C@@H](O)[C@H](O)[C@H]4O)cc3o2)cc1 ; output its category
Output: 3

Task: State the class of the molecule shown: CC(=O)/C=C/c1ccc(O)c(O)c1
Output: 1

Task: Category of O=C(O)/C=C/c1ccc(O)cc1 , please.
Output: 1

Task: Exercise: read the entry O=C(O)/C=C/C=C/c1ccc(O)c(O[C@@H]2O[C@H](COC(=O)/C=C/c3ccc(O)c(O)c3)[C@@H](O)[C@H](O)[C@H]2O)c1 and state which class it falls under.
Output: 2

Task: Consider O=C(O)/C=C\c1ccc(O)cc1 . To which EC50 class does it belong?
Output: 3

Task: Quick check: band for CC(=O)/C=C/c1ccc(O)c(O[C@@H]2O[C@H](COC(=O)/C=C/c3ccc(O)c(O)c3)[C@@H](O)[C@H](O)[C@H]2O)c1
Output: 3

Task: The entry to classify is O=C(/C=C/c1ccc(O)cc1)c1ccc(O[C@@H]2O[C@H](CO)[C@@H](O)[C@H](O)[C@H]2O)cc1O ; which class holds it?
Output: 3

Task: Where would CCOC(=O)/C=C/c1ccc(O)c(O)c1 [ETHYL CAFFEATE] land among the classes by reported EC50?
Output: 1

Task: The entry to classify is COc1ccc(-c2cc(=O)c3c(O)cc(O[C@@H]4O[C@H](CO[C@@H]5O[C@@H](C)[C@H](O)[C@@H](O)[C@H]5O)[C@@H](O)[C@H](O)[C@H]4O[C@@H]4O[C@H](COC(C)=O)[C@@H](O)[C@H](O)[C@H]4O)cc3o2)cc1 ; which class holds it?
Output: 3

Task: Band of O=C(/C=C/c1ccc(O)c(O)c1)O[C@H](Cc1ccc(O)c(O)c1)C(=O)O ?
Output: 3
